# Measurement Protocol: Toxicity in po dosed rat
# Format: organism-based
# Condition Label: in vivo
Test Readout: LD50

Compound	Test Readout	Value Measured
C=C(C)[C@H]1Cc2c(ccc3c2O[C@@H]2COc4cc(OC)c(OC)cc4[C@@H]2C3=O)O1 [ROTENONE]	LD50	132 to 1500 mg/kg

----------
# Test system: Ancylostoma ceylanicum
# Measurement Protocol: Anthelmintic activity against Ancylostoma ceylanicum isolated from infected Syrian hamster feces assessed as survival rate at 25 ug/ml measured on day 4 relative to control
# Type: functional
# Condition Label: 96 h
Entries and their survival at 25 µg/mL
Test Readout: survival at 25 µg/mL (%)

Molecule	Unit Abbrev	Value Measured
COc1cc2c(cc1OC)[C@]1(O)C(=O)c3ccc4c(c3O[C@@H]1CO2)C=CC(C)(C)O4	%	0
COc1cc2c(cc1OC)[C@@H]1C(=O)c3ccc4c(c3O[C@@H]1CO2)C=CC(C)(C)O4	%	0
CC(C)=CCc1c(O)ccc2c1O[C@H](c1ccc(O)cc1O)CC2=O	%	80
CC(C)=CCc1c(O)c(O)cc2c1O[C@H](c1ccc(O)cc1)CC2=O	%	83
Oc1ccc2c(c1)OC[C@@H]1c3cc4c(cc3O[C@H]21)OCO4 [(+)-MAACKIAIN]	%	80

----------
# Tested on: Ancylostoma ceylanicum
# Measurement Protocol: Anthelmintic activity against Ancylostoma ceylanicum isolated from infected Syrian hamster feces assessed as survival rate at 25 ug/ml measured on day 4 relative to control
# Type: functional
# Condition Label: 96 h

Structure Smiles String	survival at 25 µg/mL
COc1ccc2c(c1)O[C@@H]1c3ccc(O)cc3OC[C@H]21	100%
CC(C)=CCC/C(C)=C/Cc1c(O)ccc2c1O[C@H](c1ccc(O)cc1O)CC2=O	100%
C=CC(C)(C)c1cc([C@@H]2CC(=O)c3c(O)cc(O)c(CC=C(C)C)c3O2)c(O)cc1O	100%
CC(C)=CCc1c(O)cc(O)c2c1O[C@H](c1ccc(O)cc1O)CC2=O	93%
C=CC(C)(C)c1cc([C@@H]2CC(=O)c3ccc(O)c(CC=C(C)C)c3O2)c(O)cc1O	97%

----------
The following molecules are listed with their measured Ratio values.
# Measurement Protocol: Effect on Syrian hamster splenocytes proliferation assessed as stimulation index by BrdU-incorporation based colorimetric analysis
# Format: ADME, cell-based, Mesocricetus auratus
# Condition Label: splenocyte

Molecule	Ratio
CC(C)=CCc1c(O)c(O)cc2c1O[C@H](c1ccc(O)cc1)CC2=O	0.8
COc1ccc2c(c1)O[C@@H]1c3ccc(O)cc3OC[C@H]21	0.8 to 1
CC(C)=CCC/C(C)=C/Cc1c(O)ccc2c1O[C@H](c1ccc(O)cc1O)CC2=O	0.8 to 1
COc1cc2c(cc1OC)[C@]1(O)C(=O)c3ccc4c(c3O[C@@H]1CO2)C=CC(C)(C)O4	0.8 to 1
COc1cc2c(cc1OC)[C@@H]1C(=O)c3ccc4c(c3O[C@@H]1CO2)C=CC(C)(C)O4	0.8 to 1
C=CC(C)(C)c1cc([C@@H]2CC(=O)c3ccc(O)c(CC=C(C)C)c3O2)c(O)cc1O	0.8 to 1
CC(C)=CCc1c(O)ccc2c1O[C@H](c1ccc(O)cc1O)CC2=O	0.8 to 1
Oc1ccc2c(c1)OC[C@@H]1c3cc4c(cc3O[C@H]21)OCO4 [(+)-MAACKIAIN]	1
CC(C)=CCc1c(O)cc(O)c2c1O[C@H](c1ccc(O)cc1O)CC2=O	0.8 to 1
C=CC(C)(C)c1cc([C@@H]2CC(=O)c3c(O)cc(O)c(CC=C(C)C)c3O2)c(O)cc1O	0.8 to 1

Where do the numbers come from? From ChEMBL document CHEMBL3867451.
